# assayed.target: E1E2 of HCV isolate AMS.2b.20876551.kloon21 (genotype 2b) (Hepatitis C virus genotype 2b)
# method: cell-based or functional assay
value.type: IC50, HCVpp neutralization
Kindly report the value followed by its unit.

**Q:** Sample AT13-021 (antibody, V domains shown) VH: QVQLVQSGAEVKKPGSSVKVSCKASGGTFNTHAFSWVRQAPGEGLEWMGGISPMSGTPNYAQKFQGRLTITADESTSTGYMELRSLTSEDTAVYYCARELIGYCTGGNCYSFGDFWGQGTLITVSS VL: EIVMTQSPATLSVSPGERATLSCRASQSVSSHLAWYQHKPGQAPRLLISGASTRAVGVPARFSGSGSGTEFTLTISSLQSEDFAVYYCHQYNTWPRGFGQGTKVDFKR — what was its IC50, HCVpp neutralization?
**A:** 0.12 µg/mL
